Method Summary: Biodistribution in EMT-6 BALB/C mice
Assay type: in vivo
Details: Balb/c, mouse, intravenous; spleen, 1 hour; read-out: % ID per gram spleen
Endpoint Label: tissue uptake at 1 h (%ID/g)
Supply the numeric figure in %ID/g, leaving out any unit text.

query: GET /values?readout=tissue uptake at 1 h&item= COc1cc2c(cc1OC)CN(CCCCNC(=O)c1cc([76Br])cc(OC)c1OC)CC2 [[^76Br]6]
result: 2.61

---

Test system: EMT-6 mammary tumors
Method Summary: Biodistribution in EMT-6 BALB/C mice
Assay type: in vivo
Details: 1 hour
Field: ratio Tumor:heart. Provide a value for each of the compounds that follow.
Just the number, please, no unit attached.

query: GET /values?readout=ratio Tumor:heart&item= COc1cc2c(cc1OC)CN(CCCCNC(=O)c1cc(Br)cc(OC)c1O[11CH3])CC2 [[^11C]6]
result: 1.86

query: GET /values?readout=ratio Tumor:heart&item= COc1cc2c(cc1OC)CN(CCNC(=O)c1cc([125I])ccc1OC)CC2 [[^125I]8i]
result: 1.81

query: GET /values?readout=ratio Tumor:heart&item= COc1cc2c(cc1OC)CN(CCCCNC(=O)c1cc([76Br])cc(OC)c1OC)CC2 [[^76Br]6]
result: 3.72

query: GET /values?readout=ratio Tumor:heart&item= COc1cc2c(cc1OC)CN(CCCCNC(=O)c1cc([125I])cc(OC)c1OC)CC2 [[^125I]6i]
result: 3.89

query: GET /values?readout=ratio Tumor:heart&item= COc1cc2c(cc1OC)CN(CCCCNC(=O)c1cc(C)cc(OC)c1O[11CH3])CC2 [[^11C]10]
result: 2.78

---

Method Summary: Biodistribution in EMT-6 BALB/C mice
Assay type: in vivo
Details: Balb/c, mouse, intravenous; kidney, 2 hour; read-out: % ID per gram kidney
From the text: As used herein, the term “tumor:background ratio” (i.e., tumor:fat ratio, tumor:muscle ratio, tumor:lung ratio, tumor:blood ratio) refers to the % injected dose/g tissue of the radiotracer in the tumor divided by the % injected dose/g […] in the background tissue (i.e., fat, muscle, lung, blood). B. Biodistribution Studies of ^11C analogs in Tumor-Bearing Mice. […]
Endpoint Label: tissue uptake at 2 h
Please append the unit to your numeric answer.

query: GET /values?readout=tissue uptake at 2 h&item= COc1cc2c(cc1OC)CN(CCCCNC(=O)c1cc([76Br])cc(OC)c1OC)CC2 [[^76Br]6]
result: 1.85 %ID/g

query: GET /values?readout=tissue uptake at 2 h&item= COc1cc2c(cc1OC)CN(CCCCNC(=O)c1cc([125I])cc(OC)c1OC)CC2 [[^125I]6i]
result: 2.45 %ID/g

---

System: EMT-6 mammary tumors
Method Summary: Biodistribution in EMT-6 BALB/C mice
Assay type: in vivo
Details: heart, 1 hour
Label met when % ID per gram heart is at or above 0.5 % ID per gram; anything below gets not met.

query: Is the recorded value of % ID per gram heart equal to or greater than 0.5 % ID per gram for this compound? COc1cc2c(cc1OC)CN(CCNC(=O)c1cc(C)ccc1O[11CH3])CC2 [[^11C]9]
result: met

query: Is the recorded value of % ID per gram heart equal to or greater than 0.5 % ID per gram for this compound? COc1cc2c(cc1OC)CN(CCCCNC(=O)c1cc([76Br])cc(OC)c1OC)CC2 [[^76Br]6]
result: met

query: Is the recorded value of % ID per gram heart equal to or greater than 0.5 % ID per gram for this compound? COc1cc2c(cc1OC)CN(CCCCNC(=O)c1cc(Br)cc(OC)c1O[11CH3])CC2 [[^11C]6]
result: not met

query: Is the recorded value of % ID per gram heart equal to or greater than 0.5 % ID per gram for this compound? COc1cc2c(cc1OC)CN(CCCCNC(=O)c1cc([125I])cc(OC)c1OC)CC2 [[^125I]6i]
result: met

query: Is the recorded value of % ID per gram heart equal to or greater than 0.5 % ID per gram for this compound? COc1cc2c(cc1OC)CN(CCNC(=O)c1cc([125I])ccc1OC)CC2 [[^125I]8i]
result: not met

---

Field: % ID per gram muscle. Provide a value for each of the compounds that follow.
Tested on: EMT-6 mammary tumors
Method Summary: Biodistribution in EMT-6 BALB/C mice
Assay type: in vivo
Details: muscle, 1 hour
Supply the numeric figure in % ID per gram, leaving out any unit text.

query: GET /values?readout=% ID per gram muscle&item= COc1cc2c(cc1OC)CN(CCNC(=O)c1cc([125I])ccc1OC)CC2 [[^125I]8i]
result: 0.37

query: GET /values?readout=% ID per gram muscle&item= COc1cc2c(cc1OC)CN(CCCCNC(=O)c1cc(Br)cc(OC)c1O[11CH3])CC2 [[^11C]6]
result: 0.26

query: GET /values?readout=% ID per gram muscle&item= COc1cc2c(cc1OC)CN(CCCCNC(=O)c1cc([125I])cc(OC)c1OC)CC2 [[^125I]6i]
result: 0.87

query: GET /values?readout=% ID per gram muscle&item= COc1cc2c(cc1OC)CN(CCCCNC(=O)c1cc([76Br])cc(OC)c1OC)CC2 [[^76Br]6]
result: 0.61

query: GET /values?readout=% ID per gram muscle&item= COc1cc2c(cc1OC)CN(CCNC(=O)c1cc(C)ccc1O[11CH3])CC2 [[^11C]9]
result: 0.41

query: GET /values?readout=% ID per gram muscle&item= COc1cc2c(cc1OC)CN(CCCCNC(=O)c1cc(C)cc(OC)c1O[11CH3])CC2 [[^11C]10]
result: 0.49

---

Method Summary: Biodistribution in EMT-6 BALB/C mice
Format: in vivo
Details: Balb/c, mouse, intravenous; liver, 4 hour; read-out: % ID per gram liver
Endpoint Label: tissue uptake at 4 h (%ID/g)
Supply the numeric figure in %ID/g, leaving out any unit text.

query: GET /values?readout=tissue uptake at 4 h&item= COc1cc2c(cc1OC)CN(CCCCNC(=O)c1cc([125I])cc(OC)c1OC)CC2 [[^125I]6i]
result: 0.9

query: GET /values?readout=tissue uptake at 4 h&item= COc1cc2c(cc1OC)CN(CCCCNC(=O)c1cc([76Br])cc(OC)c1OC)CC2 [[^76Br]6]
result: 0.71

---

Method Summary: Biodistribution in EMT-6 BALB/C mice
Type: in vivo
Details: Balb/c, mouse, intravenous; lung, 4 hour; read-out: % ID per gram lung
Endpoint Label: tissue uptake at 4 h (%ID/g)
Supply the numeric figure in %ID/g, leaving out any unit text.

query: GET /values?readout=tissue uptake at 4 h&item= COc1cc2c(cc1OC)CN(CCCCNC(=O)c1cc([125I])cc(OC)c1OC)CC2 [[^125I]6i]
result: 0.29

query: GET /values?readout=tissue uptake at 4 h&item= COc1cc2c(cc1OC)CN(CCCCNC(=O)c1cc([76Br])cc(OC)c1OC)CC2 [[^76Br]6]
result: 0.29

---

System: EMT-6 mammary tumors
Method Summary: Biodistribution in EMT-6 BALB/C mice
Assay type: in vivo
Details: kidney, 30 min
Label true when % ID per gram kidney is at or above 3 % ID per gram; anything below gets false.

query: Is the recorded value of % ID per gram kidney equal to or greater than 3 % ID per gram for this molecule? COc1cc2c(cc1OC)CN(CCCCNC(=O)c1cc(Br)cc(OC)c1O[11CH3])CC2 [[^11C]6]
result: false

query: Is the recorded value of % ID per gram kidney equal to or greater than 3 % ID per gram for this molecule? COc1cc2c(cc1OC)CN(CCCCNC(=O)c1cc([76Br])cc(OC)c1OC)CC2 [[^76Br]6]
result: true

query: Is the recorded value of % ID per gram kidney equal to or greater than 3 % ID per gram for this molecule? COc1cc2c(cc1OC)CN(CCNC(=O)c1cc([125I])ccc1OC)CC2 [[^125I]8i]
result: true

query: Is the recorded value of % ID per gram kidney equal to or greater than 3 % ID per gram for this molecule? COc1cc2c(cc1OC)CN(CCCCNC(=O)c1cc([125I])cc(OC)c1OC)CC2 [[^125I]6i]
result: true

query: Is the recorded value of % ID per gram kidney equal to or greater than 3 % ID per gram for this molecule? COc1cc2c(cc1OC)CN(CCCCNC(=O)c1cc(C)cc(OC)c1O[11CH3])CC2 [[^11C]10]
result: true

query: Is the recorded value of % ID per gram kidney equal to or greater than 3 % ID per gram for this molecule? COc1cc2c(cc1OC)CN(CCNC(=O)c1cc(C)ccc1O[11CH3])CC2 [[^11C]9]
result: false

---

Test system: EMT-6 mammary tumors
Method Summary: Biodistribution in EMT-6 BALB/C mice
Type: in vivo
Details: 30 min
Response field label: string, one of Y (ratio Tumor:blood strictly below 2) or N.

query: Lab note: confirm whether the reported ratio Tumor:blood for this compound is below 2, equality not counting. compound: COc1cc2c(cc1OC)CN(CCNC(=O)c1cc([125I])ccc1OC)CC2 [[^125I]8i]
result: Y

query: Lab note: confirm whether the reported ratio Tumor:blood for this compound is below 2, equality not counting. compound: COc1cc2c(cc1OC)CN(CCCCNC(=O)c1cc(C)cc(OC)c1O[11CH3])CC2 [[^11C]10]
result: Y

query: Lab note: confirm whether the reported ratio Tumor:blood for this compound is below 2, equality not counting. compound: COc1cc2c(cc1OC)CN(CCCCNC(=O)c1cc(Br)cc(OC)c1O[11CH3])CC2 [[^11C]6]
result: Y

query: Lab note: confirm whether the reported ratio Tumor:blood for this compound is below 2, equality not counting. compound: COc1cc2c(cc1OC)CN(CCCCNC(=O)c1cc([125I])cc(OC)c1OC)CC2 [[^125I]6i]
result: N

query: Lab note: confirm whether the reported ratio Tumor:blood for this compound is below 2, equality not counting. compound: COc1cc2c(cc1OC)CN(CCCCNC(=O)c1cc([76Br])cc(OC)c1OC)CC2 [[^76Br]6]
result: N
